Data origin: patent US12486300B2

Provide the reported pEC50 of each item.
test system: A-204 (ATTC Cat. No., HTB-82); Rhabdomyosarcoma (embryonal); experiment: Growth inhibition assay, A-204 cells; format: cell-based; conditions: Table 1D
Schema: pEC50 number; meaning minus log10 of the concentration expressed in molar units.

Problem: // Input: COC(C(=NOCC(=O)NC(Cc1c[nH]c2ccccc12)C(=O)N1CCC1)C(O)C(C)O)C1Cc2cc3cc(OC4CC(OC5CC(O)C(O)C(C)O5)C(O)C(C)O4)c(C)c(O)c3c(O)c2C(=O)C1OC1CC(OC2CC(OC3CC(C)(O)C(O)C(C)O3)C(O)C(C)O2)C(O)C(C)O1 (centres unmarked) [MTM104] . Output its pEC50 only.
Solution: 6.05

Problem: // Input: CO[C@H](/C(=N/OCC(=O)N[C@@H](Cc1c[nH]c2ccccc12)c1nc(C)co1)[C@@H](O)[C@@H](C)O)[C@@H]1Cc2cc3cc(O[C@H]4C[C@@H](O[C@H]5C[C@@H](O)[C@H](O)C(C)O5)[C@H](O)C(C)O4)c(C)c(O)c3c(O)c2C(=O)[C@H]1O[C@H]1C[C@@H](O[C@H]2C[C@@H](O[C@H]3C[C@](C)(O)[C@H](O)C(C)O3)[C@H](O)C(C)O2)[C@H](O)C(C)O1 (some centres unmarked) [MTM (57)] . Output its pEC50 only.
Solution: 5.50

Problem: // Input: CCN(CC)C(=O)C(Cc1c[nH]c2ccccc12)NC(=O)CON=C(C(O)C(C)O)C(OC)C1Cc2cc3cc(OC4CC(OC5CC(O)C(O)C(C)O5)C(O)C(C)O4)c(C)c(O)c3c(O)c2C(=O)C1OC1CC(OC2CC(OC3CC(C)(O)C(O)C(C)O3)C(O)C(C)O2)C(O)C(C)O1 (centres unmarked) [MTM103] . Output its pEC50 only.
Solution: 6.71

Problem: // Input: COC(C(=NOCC(=O)NC(Cc1c[nH]c2ccccc12)C(=O)N1CCOCC1)C(O)C(C)O)C1Cc2cc3cc(OC4CC(OC5CC(O)C(O)C(C)O5)C(O)C(C)O4)c(C)c(O)c3c(O)c2C(=O)C1OC1CC(OC2CC(OC3CC(C)(O)C(O)C(C)O3)C(O)C(C)O2)C(O)C(C)O1 (centres unmarked) [MTM102] . Output its pEC50 only.
Solution: 5.56

Problem: // Input: CNC(=O)[C@H](Cc1c[nH]c2ccccc12)NC(=O)CO/N=C(\[C@@H](O)[C@@H](C)O)[C@@H](OC)[C@@H]1Cc2cc3cc(O[C@H]4C[C@@H](O[C@H]5C[C@@H](O)[C@H](O)C(C)O5)[C@H](O)C(C)O4)c(C)c(O)c3c(O)c2C(=O)[C@H]1O[C@H]1C[C@@H](O[C@H]2C[C@@H](O[C@H]3C[C@](C)(O)[C@H](O)C(C)O3)[C@H](O)C(C)O2)[C@H](O)C(C)O1 (some centres unmarked) [MTM (40)] . Output its pEC50 only.
Solution: 6.59
